Below, each of the molecules is paired with its reported Ki value.
TARGET UNDER TEST: Cannabinoid receptor 2 (Homo sapiens, UniProt P34972)
Sequence (P34972 whole entry): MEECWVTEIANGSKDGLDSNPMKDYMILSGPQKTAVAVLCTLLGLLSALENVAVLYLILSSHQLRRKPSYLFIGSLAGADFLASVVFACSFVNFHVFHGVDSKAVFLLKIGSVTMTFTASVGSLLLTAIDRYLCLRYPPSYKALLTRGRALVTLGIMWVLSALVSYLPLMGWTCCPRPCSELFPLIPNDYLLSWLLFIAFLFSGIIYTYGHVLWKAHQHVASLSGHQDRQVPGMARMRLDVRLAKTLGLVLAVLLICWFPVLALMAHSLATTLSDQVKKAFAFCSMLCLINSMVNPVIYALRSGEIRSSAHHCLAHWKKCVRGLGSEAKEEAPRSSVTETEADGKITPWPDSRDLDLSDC
ASSAY TEXT: Displacement of [3H]CP55940 from recombinant human CB2 receptor expressed in human HEK293 cell membrane after 90 mins
MEASURED PROPERTY: Ki (µM)

In [3]: df
Out[3]:
                            chemical_string  unit_descriptor  readout_value
0  O=C(NC1CCCCC1)c1cc2ccccc2n(CCN2CCOCC2)c1=O               µM          0.009
1      O=C(NC1CCCCC1)c1cccn(CCN2CCOCC2)c1=O               µM            7.9
2       O=C(NC1CCCCC1)c1cccnc1OCc1ccc(F)cc1               µM           0.25
3    O=C(NC1CCCCC1)c1cccn(Cc2ccc(F)cc2)c1=O               µM           0.02
4  O=C(NC1CCCCC1)c1cc2ccccc2n(Cc2ccc(F)cc2)c1=O               µM         0.0029
5  O=C(NC1CCCCCC1)c1c(O)c2cccnc2n(CCN2CCOCC2)c1=O               µM         0.0018

---

TARGET UNDER TEST: Cannabinoid receptor 1 (Homo sapiens)
Sequence (P21554 whole entry): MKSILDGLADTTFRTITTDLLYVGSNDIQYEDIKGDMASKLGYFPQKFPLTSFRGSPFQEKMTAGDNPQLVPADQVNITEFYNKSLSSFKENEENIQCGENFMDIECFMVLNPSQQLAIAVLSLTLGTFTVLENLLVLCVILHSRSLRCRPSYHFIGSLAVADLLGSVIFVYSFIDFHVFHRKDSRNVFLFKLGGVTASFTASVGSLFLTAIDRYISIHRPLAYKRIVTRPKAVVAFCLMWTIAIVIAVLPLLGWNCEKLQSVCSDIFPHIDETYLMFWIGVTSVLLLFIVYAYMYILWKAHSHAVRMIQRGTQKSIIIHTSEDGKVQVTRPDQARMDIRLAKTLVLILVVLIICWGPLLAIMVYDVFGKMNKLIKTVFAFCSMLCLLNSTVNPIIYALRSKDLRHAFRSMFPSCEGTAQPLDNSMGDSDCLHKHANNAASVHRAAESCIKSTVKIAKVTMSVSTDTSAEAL
ASSAY TEXT: Displacement of [3H]CP55940 from recombinant human CB1 receptor expressed in human HEK293 cell membrane after 90 mins
MEASURED PROPERTY: log10 Ki (log10 of the value in nM)

>>> print(df.to_string())
                             chemical_string  readout_value
 0       O=C(NC1CCCCC1)c1cccn(Cc2ccccc2)c1=O           2.90
 1       O=C(NC1CCCCC1)c1cccnc1OCc1ccc(F)cc1           3.26
 2  O=C(NC1CCCCCC1)c1cc2ccccc2n(Cc2ccc(F)cc2)c1=O           1.06
 3  O=C(NC1CCCCC1)c1cc2ccccc2n(Cc2ccc(F)cc2)c1=O           1.22
 4     O=C(NC1CCCCCC1)c1cccn(CCN2CCOCC2)c1=O           2.98
 5  O=C(NC1CCCCCC1)c1cc2ccccc2n(CCN2CCOCC2)c1=O           2.31
 6    O=C(NC1CCCCC1)c1cccn(Cc2ccc(F)cc2)c1=O           1.85
 7      O=C(NC1CCCCCC1)c1cccnc1OCc1ccc(F)cc1           2.00
 8  O=C(NC1CCCCC1)c1c(O)c2cccnc2n(CCN2CCOCC2)c1=O           1.81
 9  CCCC(C)(C)c1ccc2c(c1)OC(C)(C)[C@@H]1CC=C(C)C[C@@H]21           2.07
10  O=C(NC1CCCCCC1)c1c(O)c2cccnc2n(CCN2CCOCC2)c1=O           2.37
11  O=C(NC1CCCCC1)c1cc2ccccc2n(Cc2ccccc2)c1=O           1.83
12  O=C(NC1CCCCC1)c1c(O)c2cccnc2n(Cc2ccccc2)c1=O           2.75
13  O=C(NC1CCCCC1)c1cc2ccccc2n(CCN2CCOCC2)c1=O           2.48
14   O=C(NC1CCCCCC1)c1cccn(Cc2ccc(F)cc2)c1=O           1.63
15  O=C(NC1CCCCC1)c1cc2ccccc2nc1OCc1ccc(F)cc1           3.08

---

In this section we review reported pKi values for a set of compounds.
TARGET UNDER TEST: Cannabinoid receptor 2 (Homo sapiens, UniProt P34972)
ASSAY TEXT: Displacement of [3H]CP55940 from recombinant human CB2 receptor expressed in human HEK293 cell membrane after 90 mins
pKi: −log10 of the molar value.
MEASURED PROPERTY: pKi

                             chemical_string  readout_value
 0  O=C(NC1CCCCC1)c1cc2ccccc2n(Cc2ccccc2)c1=O           7.80
 1  CCCC(C)(C)c1ccc2c(c1)OC(C)(C)[C@@H]1CC=C(C)C[C@@H]21           8.74
 2  O=C(NC1CCCCCC1)c1cc2ccccc2n(CCN2CCOCC2)c1=O           8.70
 3     O=C(NC1CCCCCC1)c1cccn(CCN2CCOCC2)c1=O           6.10
 4          O=C(NC1CCCCC1)c1cccnc1OCc1ccccc1           6.04
 5  O=C(NC1CCCCC1)c1cc2ccccc2nc1OCc1ccc(F)cc1           6.89
 6  O=C(NC1CCCCC1)c1c(O)c2cccnc2n(Cc2ccccc2)c1=O           7.10
 7  O=C(NC1CCCCC1)c1c(O)c2cccnc2n(CCN2CCOCC2)c1=O           8.62
 8  O=C(NC1CCCCCC1)c1cc2ccccc2n(Cc2ccc(F)cc2)c1=O           9.60
 9   O=C(NC1CCCCCC1)c1cccn(Cc2ccc(F)cc2)c1=O           8.11
10      O=C(NC1CCCCCC1)c1cccnc1OCc1ccc(F)cc1           7.60
11       O=C(NC1CCCCC1)c1cccn(Cc2ccccc2)c1=O           6.70
